# Test Method Notes: Cytotoxicity (neurotoxicity) MTT assay in SH-SY5Y
# Assay type: cell-based
# Details: human, SH-SY5Y neuroblastoma cells, 12.5 μM, 24 h, MTT, read-out: Cell viability (% of control)
Catalogue of viability at 24 h, 12.5 µM values
Measured Endpoint: viability at 24 h, 12.5 µM (%)

INSERT INTO assay_data (smiles_repr, measured_endpoint, display_unit, reported) VALUES
  ('O=c1oc2cc(OCCCN3CCCCC3)ccc2cc1-c1cn(Cc2ccccc2)nn1', 'viability at 24 h, 12.5 µM', '%', 99),
  ('O=c1oc2cc(OCCN3CCCCC3)ccc2cc1-c1cn(Cc2ccccc2)nn1', 'viability at 24 h, 12.5 µM', '%', 121),
  ('COc1cccc(Cn2cc(-c3cc4ccc(OCCN5CCCCC5)cc4oc3=O)nn2)c1', 'viability at 24 h, 12.5 µM', '%', 71),
  ('COc1ccc(Cn2cc(-c3cc4ccc(OCCN5CCCCC5)cc4oc3=O)nn2)cc1', 'viability at 24 h, 12.5 µM', '%', 99);

====

# Test System: UniProt:O42275
# Test Method Notes: biochemical
# Format: biochemical
# Details: Selectivity Index = EqBChE IC50/EeAChE IC50
# Procedure: The anticholinesterase activity was determined using Ellman’s method, adapted as follows. […] Subsequently, 60 μL of 5,5′-dithiobis(2-nitrobenzoic acid) (DTNB, 1.1 mM) and 30 μL of enzyme solution (electric eel AChE [EeAChE], human AChE [hAChE], or equine serum BChE [EqBChE], 0.20 U/mL) containing 1 mg/mL bovine serum albumin (BSA) were added. […] Enzyme activity was calculated as the percentage relative to untreated controls, subtracting the blank reference. […]
Under this convention, Yes denotes SI strictly below 600 and No denotes SI at or above 600.

INSERT INTO results (molecule, class_name) VALUES
  ('COc1ccccc1Cn1cc(-c2cc3ccc(OCCN4CCCCC4)cc3oc2=O)nn1 [Compound 1i]', 'Yes'),
  ('O=c1oc2cc(OCCN3CCCCC3)ccc2cc1-c1cn(Cc2ccccc2)nn1 [Compound 1h]', 'No'),
  ('O=c1oc2cc(OCCN3CCCCC3)ccc2cc1-c1cn(Cc2ccc(Br)cc2)nn1 [Compound 1p]', 'Yes'),
  ('COc1ccc(Cn2cc(-c3cc4ccc(OCCN5CCCCC5)cc4oc3=O)nn2)cc1 [Compound 1k]', 'Yes'),
  ('COc1cccc(Cn2cc(-c3cc4ccc(OCCN5CCCCC5)cc4oc3=O)nn2)c1 [Compound 1j]', 'No');

====

Some compounds, each annotated with its measured SI.
# Test System: electric eel AChE [EeAChE] (Electrophorus electricus)
# Sequence (O42275 24-633): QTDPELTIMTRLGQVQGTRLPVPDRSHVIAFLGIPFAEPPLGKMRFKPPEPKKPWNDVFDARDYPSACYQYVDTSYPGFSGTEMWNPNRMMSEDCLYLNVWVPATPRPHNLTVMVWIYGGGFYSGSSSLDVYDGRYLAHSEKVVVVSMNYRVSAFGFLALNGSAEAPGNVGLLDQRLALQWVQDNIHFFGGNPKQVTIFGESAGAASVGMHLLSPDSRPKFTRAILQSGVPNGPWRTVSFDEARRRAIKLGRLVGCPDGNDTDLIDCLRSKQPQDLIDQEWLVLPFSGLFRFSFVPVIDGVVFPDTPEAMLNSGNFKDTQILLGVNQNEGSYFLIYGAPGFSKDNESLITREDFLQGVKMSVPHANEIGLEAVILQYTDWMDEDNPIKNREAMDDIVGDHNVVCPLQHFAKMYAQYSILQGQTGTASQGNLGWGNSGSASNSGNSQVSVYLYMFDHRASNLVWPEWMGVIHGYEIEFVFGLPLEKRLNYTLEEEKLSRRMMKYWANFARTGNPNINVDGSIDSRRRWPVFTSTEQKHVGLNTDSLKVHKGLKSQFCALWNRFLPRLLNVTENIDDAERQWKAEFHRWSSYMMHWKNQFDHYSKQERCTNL
# Test Method Notes: biochemical
# Type: biochemical
# Details: Selectivity Index = EqBChE IC50/EeAChE IC50
Marks after values point to notes of the source that are not given here.
Measured Endpoint: SI

INSERT INTO results (smiles_repr, reported) VALUES
  ('O=c1oc2cc(OCCCCCN3CCCCC3)ccc2cc1-c1cn(-c2ccccc2)nn1', '~1'),
  ('O=c1oc2cc(OCCCCN3CCCCC3)ccc2cc1-c1cn(-c2ccccc2)nn1', '~2'),
  ('CC1CCN(CCOc2ccc3cc(-c4cn(-c5ccccc5)nn4)c(=O)oc3c2)CC1', '~7'),
  ('O=c1oc2cc(OCCCN3CCCCC3)ccc2cc1-c1cn(Cc2ccccc2)nn1', '~2 ^e,f'),
  ('O=c1oc2cc(OCCN3CCNCC3)ccc2cc1-c1cn(-c2ccccc2)nn1', '~8');

These data points were gathered from paper PMC12472947.
